# Test protocol: Cynomolgus monkey tolerability, urine analysis (Example 34)
# Condition description: cynomolgus monkeys, 35 mg/kg subcutaneously, day 44
# UTP values compiled below
Recorded endpoint: UTP (mg/dL)

>>> recorded_value("1198872 (TGTATGTCAGAAGAGT; chemically modified gapmer, further chemistry not given here) [compound 1198872]")
14
>>> recorded_value("1197270 (TTAAAGTGTATGTCAG; cEt gapmer with 2'-OMe nucleoside, phosphorothioate, further chemistry not given here) [compound 1197270]")
18
>>> recorded_value("1076453 (GTAATATTGCAATCTG; 3-10-3 cEt gapmer, further chemistry not given here) [compound 1076453]")
14
>>> recorded_value("1198831 (CACTTTTACATTAGGA; chemically modified gapmer, further chemistry not given here) [compound 1198831]")
13
>>> recorded_value("1198440 (AAGTGTATGTCAGAAG; cEt, 2'-MOE, 5-methylcytosine, phosphorothioate modifications, further chemistry not given here) [compound 1198440]")
13
>>> recorded_value("1198439 (AGTGTATGTCAGAAGA; sugar, 5-methylcytosine, phosphorothioate modifications, further chemistry not given here) [compound 1198439]")
15
>>> recorded_value("1198623 (CTAAGTAAGGTTTCCC; modified gapmer, further chemistry not given here) [compound 1198623]")
10
>>> recorded_value("1198605 (GTAATATTGCAATCTG; modified gapmer, further chemistry not given here) [compound 1198605]")
12
>>> recorded_value("1198728 (TATTAGAGTATGTGGC; modified gapmer, further chemistry not given here) [compound 1198728]")
16
>>> recorded_value("958499 (ATTAGAGTATGTGGCA; 3-10-3 cEt gapmer, further chemistry not given here) [compound 958499]")
16
